system: P388 murine leukemia; experiment: In vivo anti-tumor activity, i.p. implanted leukemia; set-up: species or system BDF1 hybrid male mice; details: 40 mg/kg/day i.p., days 1, 5, 9; P388
Hi! Just check whether MST ± SD is below 30 days. Below gives y, equal or above gives n.

COMPOUND	CAT
Cc1cc(O)c(C2CCCN2C(=O)NCCN(C)C)c(=O)o1.O=C(O)C(F)(F)F (centres unmarked) [7h]	y
CN(C)CCNC(=O)N1CCCC1c1cc2c(cc1O)OCO2.O=C(O)C(F)(F)F (centres unmarked) [5h]	n
O=C(Nc1ccccc1)N1CCCC1c1cc2c(cc1O)OCO2 (centres unmarked) [5b]	y
CN(C)CCNC(=O)N1CCCC1c1c(O)c2ccccc2oc1=O.O=C(O)C(F)(F)F (centres unmarked) [8h]	y

QUERY: Does CN(C)CCNC(=O)N1CCCC1c1ccc(Nc2c([N+](=O)[O-])c(Cl)cc3c2no[n+]3[O-])cc1O.O=C(O)C(F)(F)F (centres unmarked) [6h] have MST ± SD strictly under 30 days?
RESULT: y
